system: T-47D spheroids with HUVEC/MSC, viability; test: Anticancer human tumor T-47D cell line growth inhibition [PI3K]; details: second compound 0.00316 µM; first compound 0.1 µM; active compounds read low;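 further: spheroids exposed to agents for seven days before reading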
Lab note - cut at 70% for viability, T/C: Satisfied if strictly below, Not satisfied if not.

# compound, tgt, classification
measured = [
    ("CCN1CCN(Cc2ccc(Nc3ncc(F)c(-c4cc(F)c5nc(C)n(C(C)C)c5c4)n3)nc2)CC1 + CC(Nc1ccc2c(c1)OCCn1cc(N3C(=O)OCC3C(F)F)nc1-2)C(N)=O", "T-47D spheroids with HUVEC/MSC, viability", "Not satisfied"),
    ("CC(C)NCC(C(=O)N1CCN(c2ncnc3c2C(C)CC3O)CC1)c1ccc(Cl)cc1 (stereo unspecified) + CC(Nc1ccc2c(c1)OCCn1cc(N3C(=O)OCC3C(F)F)nc1-2)C(N)=O", "T-47D spheroids with HUVEC/MSC, viability", "Not satisfied"),
    ("CC(C)n1nc(-c2ccc3oc(N)nc3c2)c2c(N)ncnc21 + CC(Nc1ccc2c(c1)OCCn1cc(N3C(=O)OCC3C(F)F)nc1-2)C(N)=O", "T-47D spheroids with HUVEC/MSC, viability", "Satisfied"),
    ("CC1(C)CCC(Nc2ncc(C(F)(F)F)c(-c3c[nH]c4c(P(C)(C)=O)c(C#N)ccc34)n2)CN1 (stereo unspecified) + COc1c(OCCCN2CCOCC2)ccc2c3n(c(=NC(=O)c4cnc(N)nc4)nc12)CCN3", "T-47D spheroids with HUVEC/MSC, viability", "Satisfied"),
]
